- method-notes: NCI Yeast Anticancer Drug Screen. Data for the rad50 strain (AID 155);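 also: 0% = growth of vehicle-only cultures of the same strain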
- measurement-setup: S. cerevisiae rad50 strain growth inhibition; at 50.0 µM; stronger effect = higher value
This is part of a sample that, as a whole, favours compounds with a hit. Of some 79,000 tested, about 15% had one in any assay.
# maps each entry to its growth inhibition
reported-metric: growth inhibition (%)

{"columns": ["compound", "reported-metric", "obs-value"],
 "data": [
  ["COc1ccc(C(Cc2ccccc2)Nc2ccccc2)cc1 (stereo not drawn)", "growth inhibition", 4.1],
  ["CCCCCCCCCCCCCCCCCCCCCCOC(=O)CCC(=O)OCCCCCCCCCCCCCCCCCCCCCC", "growth inhibition", 17.2],
  ["Clc1ccccc1C(N1CCCCC1)N1CCCCC1", "growth inhibition", 27.9],
  ["Nc1ncnc(N)c1NC(=O)CCCCc1ccccc1", "growth inhibition", 4.25],
  ["COc1ccc(-c2oc3ccc(C)cc3c(=O)c2O)cc1", "growth inhibition", 6.9],
  ["O=[N+]([O-])c1ccc(O)c(C=NCCCN=Cc2cc([N+](=O)[O-])ccc2O)c1", "growth inhibition", 0.7],
  ["[B-]([C+]1CCCCC1)N1C=CC=CC1", "growth inhibition", 1.2],
  ["O=C(CC(=O)c1ccccc1)Cc1ccccc1.O=C(CC(=O)c1ccccc1)Cc1ccccc1.[Cu]", "growth inhibition", 60],
  ["O=C(O)CC(C(=O)O)c1ccccc1[N+](=O)[O-] (stereo not drawn)", "growth inhibition", -26.9],
  ["S=C(Sc1nc2ccccc2[nH]1)Sc1nc2ccccc2[nH]1", "growth inhibition", 16.9],
  ["O=C(c1nc2cc([N+](=O)[O-])ccc2[nH]c1=O)C(O)c1ccco1 (stereo not drawn)", "growth inhibition", -8.65],
  ["Cc1ncc2c(n1)NC(c1ccc([N+](=O)[O-])cc1)NC2 (stereo not drawn)", "growth inhibition", 0.45],
  ["NNC1=Nc2ccc(Cl)cc2C(=S)N2CSCC12 (stereo not drawn)", "growth inhibition", -1.05],
  ["CCCCCCCCCCCCCCCCS(=O)(=O)c1ccc(S(=O)(=O)CS(C)(=O)=O)cc1[N+](=O)[O-]", "growth inhibition", -5.55],
  ["CCOC(=O)C12CCCCC1=CC1(CC2)SCCS1 (stereo not drawn)", "growth inhibition", -0.45],
  ["CC1=CC2=C(OCO1)C(=O)c1ccccc1C2=O", "growth inhibition", 7.25],
  ["CN(C/C=C/CN(C)C(=S)Nc1ccccc1)C(=S)Nc1ccccc1", "growth inhibition", -19.1],
  ["OCC1CC(O)CN2CCc3c([nH]c4ccccc34)C2C1 (stereo not drawn)", "growth inhibition", 4.6],
  ["COc1c(O)c2c(=O)cc3c4c5c(cc(=O)c6c(O)c(OC)c(CC(C)O)c(c(c1CC(C)O)c24)c65)OCO3 (stereo not drawn)", "growth inhibition", 74.5],
  ["N#C[C@H](c1nc2ccccc2s1)c1nc2ccccc2nc1Cl", "growth inhibition", 4.95],
  ["CC(=O)OCC1OC(n2c(C)c(N=Nc3ccc(C)cc3)c(C)c(C#N)c2=S)C(OC(C)=O)C(OC(C)=O)C1OC(C)=O (stereo not drawn)", "growth inhibition", -8.05],
  ["CCOc1ccc(NC(=O)c2ccccc2O)cc1", "growth inhibition", 26.9],
  ["CN1CCCS/C1=C1/SC(=S)N(c2ccccc2)C1=O", "growth inhibition", -16.8]
]}

Measured values drawn from PubChem BioAssay (NCI) for this set.
